# System: SF-268 CNS
# Test name: NCI-60 one-dose screen, 48 h (100 = growth as untreated, 0 = no growth, -100 = all killed)
# Test context: 10 µM unless noted
About 83,000 compounds went through this panel and 20% of them were active in at least one assay; those are over-represented in the sample as a whole.
// classify(record): look up growth in ranges low group = under 60%, middle group = from 60% up to 90%, high group = 90% and over

INPUT: Where would Nc1cccc(C(=O)Nc2ccc3c(O)c(N=Nc4ccc(N=Nc5ccc(S(=O)(=O)O)cc5)cc4)c(S(=O)(=O)O)cc3c2)c1 land among the classes by reported growth?
OUTPUT: high group

INPUT: Quick one: O=c1c2ccccc2oc2ccc(OCCCCCN3CCCCCC3)cc12
OUTPUT: middle group

INPUT: Quick one: CC1(c2ccccc2Cl)NC(=O)NC1=O (stereo not given)
OUTPUT: high group

INPUT: Quick one: CC1=C/C(=N\N=C2/C=C(C)CC(C)(C)C2)CC(C)(C)C1
OUTPUT: high group

INPUT: Quick one: CN1CCN(S(=O)(=O)O[C@@H]2C(=O)N(c3cc4c5ccccc5ccc4c4ccccc34)[C@H]2c2ccc(F)cn2)CC1
OUTPUT: middle group

INPUT: Quick one: CCC1S/C(=N\N=C(/C)c2ccc[nH]2)N(c2ccccc2)C1=O (stereo not given)
OUTPUT: high group

INPUT: Quick one: Nc1c(C(=O)Nc2ccccn2)sc2nc3c(cc12)CCCC3
OUTPUT: middle group

INPUT: Quick one: Cc1cccc2nc3c(n12)C(=O)C(=O)c1ccccc1-3
OUTPUT: middle group

INPUT: Quick one: O=c1nc(-c2ccccc2)c2cc(-c3ccc(N4CCCC4)nc3)ccc2[nH]1
OUTPUT: middle group

INPUT: Quick one: O=C(Nc1nc(-c2ccccc2)cs1)c1cc(-c2ccc(Br)cc2)nc2ccccc12
OUTPUT: low group

INPUT: Quick one: CC(=O)OCC1SC(OC(C)=O)C(NC(=O)/C=C/CCl)C(OC(C)=O)C1OC(C)=O (stereo not given)
OUTPUT: high group

INPUT: Quick one: C=C1C(=O)O[C@H]2[C@H]1CC/C(COC(=O)CCCCCCC(=O)OC/C1=C/CC[C@@]3(C)O[C@H]3[C@H]3OC(=O)C(=C)[C@@H]3CC1)=C\CC[C@@]1(C)O[C@@H]21
OUTPUT: low group

INPUT: Quick one: COc1ccc(C(=O)c2cc(OC)c(OC)c(OC)c2)cc1OC(=O)C(Cl)(Cl)Cl
OUTPUT: low group

INPUT: Quick one: CCCCn1c(=O)c(/C=C/C(=O)/C=C/c2cc3ccccc3n(CCCC)c2=O)cc2ccccc21
OUTPUT: low group

INPUT: Quick one: C/C(=N/Nc1nc2ccccc2n1C)c1ccccn1
OUTPUT: low group

INPUT: Quick one: Cc1c(C(=O)Nc2nc3ccccc3[nH]2)cnn1-c1ccccn1
OUTPUT: high group

INPUT: Quick one: O=C1[C@@H](OS(=O)(=O)CC(F)(F)F)[C@H](c2ccc(F)cn2)N1c1cc2c3ccccc3ccc2c2ccccc12
OUTPUT: middle group

INPUT: Quick one: CC(C)NS(=O)(=O)c1cccc(-c2ccc3c(=O)n(CCCN)c4c(c3c2)C(=O)c2ccccc2-4)c1
OUTPUT: high group

* * *

# Tested on: SK-MEL-28 melanoma
# Test name: NCI-60 one-dose screen, 48 h (100 = growth as untreated, 0 = no growth, -100 = all killed)
# Test context: 10 µM unless noted
This is part of a sample that, as a whole, favours compounds with a hit. Of some 83,000 tested, about 20% had one in any assay.
Exercise: for every item that follows, state its recorded growth.
Please reply with the bare figure in % and do not write the unit itself.

INPUT: Returns the measured growth for the input molecule. Input: COc1ccc2nc(-c3ccc(Cl)cc3)cc(-c3nnc(SCC(=O)Nc4ccc(/C(C)=N\O)cc4)o3)c2c1
OUTPUT: 72.6

INPUT: Quick one: NC[C@@H]1CCN(c2cc3c(cc2F)c(=O)n(N)c(=O)n3Cc2ccc(-c3ccccc3)cc2)C1
OUTPUT: 113

INPUT: Quick one: Nc1ccc(C2=NN(C(=O)c3cc(-c4ccc(Cl)cc4)nc4ccccc34)C(c3ccccc3)C2)cc1 (configuration not stated)
OUTPUT: 58.8

INPUT: Quick one: COc1ccc2nc(-c3ccc(Cl)cc3)cc(C(=O)N3N=C(c4ccc(N)cc4)CC3c3ccccc3)c2c1 (configuration not stated)
OUTPUT: 61.7

INPUT: Quick one: CC1=C/C(=N\N=C2/C=C(C)CC(C)(C)C2)CC(C)(C)C1
OUTPUT: 116

INPUT: Quick one: CN(C)C1=NCCN1
OUTPUT: 113

INPUT: Quick one: O=C(O)C(C(=O)O)c1cccc2ccccc12
OUTPUT: 111

INPUT: Quick one: CCC1S/C(=N\N=C(/C)c2ccc[nH]2)N(c2ccccc2)C1=O (configuration not stated)
OUTPUT: 110

INPUT: Quick one: COC(=O)CCc1n(Cc2ccc3ccccc3c2)c2ccccc2[n+]1Cc1ccc2ccccc2c1
OUTPUT: 4.8

INPUT: Quick one: COc1ccc(-n2cc(-c3ccc(Cl)c(Cl)c3)[nH]c2=O)cc1OC
OUTPUT: 103

INPUT: Quick one: O=C(O)CCNC1CCCCC1
OUTPUT: 100

INPUT: Quick one: COc1cc(/C=C/C(=O)/C=C/c2cc3ccc(Cl)cc3n(Cc3ccccc3)c2=O)ccc1O
OUTPUT: 3.48

INPUT: Quick one: COc1ccc(-c2[nH]c3ccc(OC)cc3c2C=C(C#N)C#N)cc1
OUTPUT: 54.2

INPUT: Quick one: COc1cc(F)c(-c2nc3c(C)cccc3n2Cc2c(F)cccc2F)c(F)c1
OUTPUT: 98.7

INPUT: Quick one: COc1ccc(OCC(=O)OC(C)C)cc1
OUTPUT: 102

INPUT: Quick one: COc1ccc(-c2cs/c(=N\N=C\c3ccc(O)cc3O)n2/N=C/c2ccc(O)cc2O)cc1
OUTPUT: -22.9

INPUT: Quick one: Nc1ccccc1NS(=O)(=O)c1ccc(Cl)cc1
OUTPUT: 96.8

INPUT: Quick one: COc1cc(C(C)c2ccc3c(ccn3C)c2)cc(OC)c1OC (configuration not stated)
OUTPUT: 67

INPUT: Quick one: COc1ccc(Nc2cc(NC(=O)CNc3cc(OC)c(Cl)c(OC)c3Cl)ncn2)cc1
OUTPUT: 84.7

INPUT: Quick one: Cc1nc2sc(C(=O)Nc3cccc(Cl)c3C)c(N)c2cc1C(C)O (configuration not stated)
OUTPUT: 62.1

INPUT: Quick one: CC(=O)Oc1ccc(O)cc1
OUTPUT: 104

INPUT: Quick one: Nc1c(C(=O)Nc2ccccn2)sc2nc3c(cc12)CCCCCC3
OUTPUT: 51.2

* * *

Exercise: for every item that follows, state its recorded growth.
# Test system: SNB-75 CNS
# Test name: NCI-60 one-dose screen, 48 h (100 = growth as untreated, 0 = no growth, -100 = all killed)
# Test context: 10 µM unless noted
The panel holds about 83,000 compounds, 20% with a hit somewhere; the sample as a whole holds those more often. Activity calls are given as the source filed them. The calls were made as follows: active = growth percent below 10; inactive = the rest.

INPUT: Returns the measured growth for the input compound. Input: CC(=O)c1cnc(-c2ccccc2)nc1CBr
OUTPUT: 73.4% (inactive)

INPUT: Quick one: COc1ccc(-c2cc(-c3nnc(SCC(=O)Nc4ccc(/C(C)=N\O)cc4)n3-c3ccccc3)c3cc(OC)ccc3n2)cc1
OUTPUT: 80.3% (inactive)

INPUT: Quick one: CCCCn1c(=O)c(/C=C/C(=O)/C=C/c2cc3ccccc3n(CCCC)c2=O)cc2ccccc21
OUTPUT: 48.8% (inactive)

INPUT: Quick one: O=C(CSC(=S)N1CCCCC1)Nc1ccccc1
OUTPUT: 93.1% (inactive)

INPUT: Quick one: CCOC(=O)NCCc1nc2c([nH]1)c(=O)n(C)c(=O)n2C
OUTPUT: 91% (inactive)

INPUT: Quick one: COc1ccc(-c2cn(-c3ccc(Cl)cc3)c(=S)[nH]2)cc1OC
OUTPUT: 111% (inactive)

* * *

# System: MDA-MB-435 melanoma
# Test name: NCI-60 one-dose screen, 48 h
# Test context: 10 µM unless noted
This is part of a sample that, as a whole, favours compounds with a hit. Of some 83,000 tested, about 20% had one in any assay. Activity calls are given as the source filed them. The calls were made as follows: active = growth percent below 10; inactive = the rest.
Write down one outcome, taken from active, inactive

INPUT: Given Nc1cc(N)nc(SCC(=O)O)n1 , state the outcome it received in this test.
OUTPUT: inactive

INPUT: Quick one: COc1cc(C2=NN(C(C)=O)C(c3cccc(Nc4ccnc5cc(C(F)(F)F)ccc45)c3)C2)cc(OC)c1OC (stereo not given)
OUTPUT: inactive

INPUT: Quick one: C=C1C(=O)O[C@H]2[C@H]1CC/C(COC(=O)CCCCCCCCC(=O)OC/C1=C/CC[C@@]3(C)O[C@H]3[C@H]3OC(=O)C(=C)[C@@H]3CC1)=C\CC[C@@]1(C)O[C@@H]21
OUTPUT: active

INPUT: Quick one: Cc1c(Cl)cccc1NC(=O)c1sc2nc3c(cc2c1N)CCCCCC3
OUTPUT: active

INPUT: Quick one: COc1ccc(NC(=O)c2ccc(Nc3ncnc4[nH]c(C)c(C)c34)cc2)cc1
OUTPUT: inactive

INPUT: Quick one: COc1ccc(-n2cc(-c3ccc(Cl)c(Cl)c3)[nH]c2=O)cc1OC
OUTPUT: inactive

INPUT: Quick one: O=C(Nc1nc2ccc(C(F)(F)F)cc2s1)c1cc(Cl)ccc1O
OUTPUT: inactive

INPUT: Quick one: O=C(/C(=C/c1ccc([N+](=O)[O-])cc1)SCc1ccc(Cl)cc1)c1ccc(F)cc1
OUTPUT: inactive

INPUT: Quick one: O=C(CN1N=C(c2ccc(F)cc2)CCC1=O)Nc1nccs1
OUTPUT: inactive

INPUT: Quick one: CCCNc1nc(C)[nH]c(=O)c1S
OUTPUT: inactive

INPUT: Quick one: COCCc1n(Cc2ccc3ccccc3c2)c2ccccc2[n+]1Cc1ccc2ccccc2c1
OUTPUT: active

INPUT: Quick one: CCN1CCC[C@H]1c1cc(O)c2c(c1OC)C[C@H]1C[C@H]3[C@H](N)C(=O)C(C(N)=O)=C(O)[C@@]3(O)C(=O)C1=C2O
OUTPUT: active

INPUT: Quick one: COc1ccc(N(C)c2nc(Cl)nc3ccn(C)c23)cc1
OUTPUT: active

INPUT: Quick one: O=C(CCc1nnco1)c1nc2ccc([N+](=O)[O-])cc2[nH]1
OUTPUT: inactive

INPUT: Quick one: Cc1cnc(SCc2ccc(Cl)cc2Cl)nc1Nc1ccc(Cl)c(Cl)c1
OUTPUT: inactive

INPUT: Quick one: COc1cc(-c2csc(NC(=O)Nc3ccc(C(F)(F)F)cc3)n2)cc(OC)c1OC
OUTPUT: active

INPUT: Quick one: CCc1ccc(OCc2ccccc2C(=O)Nc2ccc3nc(C)cc(N)c3c2)cc1
OUTPUT: active

INPUT: Quick one: Cc1ccc(SC2c3ccc(C)cc3Oc3nc(N)c(C#N)c(N)c32)cc1 (stereo not given)
OUTPUT: inactive

INPUT: Quick one: CCOC(=O)c1cnn(-c2nc(-c3ccc(F)cc3)c(C#N)c(N3CCOCC3)n2)c1N
OUTPUT: inactive

INPUT: Quick one: Cc1c(Br)cccc1NC(=O)c1sc2nc3c(cc2c1N)CN(Cc1ccccc1)CC3
OUTPUT: active

All figures here come from PubChem BioAssay (NCI).
